Where these numbers come from: patent US20240124432A1

pest or weed control at 250 g/ha values, listed per item
System: ECHCG
Assay: Post-emergence biological efficacy
Type: in vivo
Details: Echinochloa crus-galli, 312 h, evaluated after 13 days, read-out: damage to plant (100=total damage to plant; 0=no damage to plant)
Your answer is read as %, so omit the unit and give the number.

Lab note: CCOC(=O)C1(C)CC(c2cc(-c3ncc(F)cc3Cl)c(F)cc2Cl)=NO1 (stereo not shown) gave pest or weed control at 250 g/ha of 100

###

System: IPOHE
Assay: Post-emergence biological efficacy
Type: in vivo
Details: Ipomoea hederacea, 312 h, evaluated after 13 days, read-out: damage to plant (100=total damage to plant; 0=no damage to plant)
pest or weed control at 250 g/ha values, listed per item
Your answer is read as %, so omit the unit and give the number.

These recorded examples may help you get a feel for the data.
CCOC(=O)C1(C)CC(c2cc(-c3c(Cl)cc(C(F)(F)F)c[n+]3[O-])ccc2Cl)=NO1 (stereo not shown) | 100
CCOC(=O)C1(C)CC(c2cc(-c3ncc(C(C)=O)cc3Cl)c(F)cc2Cl)=NO1 (stereo not shown) | 40
CCOC(=O)C1(C)CC(c2cc(-c3ccnc(Cl)c3Cl)c(F)cc2Cl)=NO1 (stereo not shown) | 100

Then this compound:
Lab note: CCOC(=O)C1(C)CC(c2cc(-c3ncc(Br)cc3Cl)c(F)cc2Cl)=NO1 (stereo not shown) gave pest or weed control at 250 g/ha of 100

###

Test system: EPHHL
Assay: Pre-emergence biological efficacy
Format: in vivo
Settings: Euphorbia heterophylla, 312 h, evaluated after 13 days, read-out: damage to plant (100=total damage to plant; 0=no damage to plant)
Under this convention, 1 denotes pest or weed control at 250 g/ha strictly below 10% and 0 denotes pest or weed control at 250 g/ha at or above 10%.

For orientation, consider the following solved cases.
CCOC(=O)C1(C)CC(c2cc(-c3ncc([N+](=O)[O-])cc3Cl)c(F)cc2Cl)=NO1 (centres unmarked) [Compound 1-355] | 0
CCOC(=O)C1(C)CC(c2cc(-c3c(Cl)cc(C(F)(F)F)c[n+]3[O-])c(F)cc2Cl)=NO1 (centres unmarked) [Compound 1-667] | 0
CCOC(=O)C1(C)CC(c2cc(-c3cc(Cl)nc(OC)c3)c(F)cc2Cl)=NO1 (centres unmarked) [Compound 1-523] | 1

Input CCOC(=O)C1(C)CC(c2cc(-c3ncc(C(F)(F)F)cc3Cl)c(F)cc2Cl)=NO1 (centres unmarked) [Compound 1-103] ; condition: pest or weed control at 250 g/ha strictly below 10%. Does it hold?
0

###

System: LOLPE
Experiment: Pre-emergence biological efficacy
Assay type: in vivo
Details: Lolium perenne, 312 h, evaluated after 13 days, read-out: damage to plant (100=total damage to plant; 0=no damage to plant)
assay_readout: pest or weed control at 250 g/ha (%)
Your answer is read as %, so omit the unit and give the number.

These recorded examples may help you get a feel for the data.
CCOC(=O)C1(C)CC(c2cc(-c3ncc(C(F)(F)F)cc3Cl)ccc2Cl)=NO1 (centres unmarked) | 80
CCOC(=O)C1(C)CC(c2cc(-c3cnc4c(c3)OC(F)(F)O4)c(F)cc2Cl)=NO1 (centres unmarked) | 40
CCOC(=O)C1(C)CC(c2cc(-c3cc(F)cnc3Cl)c(F)cc2Cl)=NO1 (centres unmarked) | 0
CCOC(=O)C1(C)CC(c2cc(-c3cc(C)cc(F)n3)c(F)cc2Cl)=NO1 (centres unmarked) | 0
CCOC(=O)C1(C)CC(c2cc(-c3ccncc3)c(F)cc2Cl)=NO1 (centres unmarked) | 0

Lab note: CCOC(=O)C1(C)CC(c2cc(-c3ccnc(Cl)c3Cl)c(F)cc2Cl)=NO1 (centres unmarked) gave pest or weed control at 250 g/ha of 0

Lab note: CCOC(=O)C1(C)CC(c2cc(-c3ncc(C(C)=O)cc3Cl)c(F)cc2Cl)=NO1 (centres unmarked) gave pest or weed control at 250 g/ha of 0

###

Test system: LOLPE
Test: Post-emergence biological efficacy
Format: in vivo
Conditions: Lolium perenne, 312 h, evaluated after 13 days, read-out: damage to plant (100=total damage to plant; 0=no damage to plant)
assay_readout: pest or weed control at 250 g/ha (%)
Your answer is read as %, so omit the unit and give the number.

Lab note: CCOC(=O)C1(C)CC(c2cc(-c3cccnc3F)c(F)cc2Cl)=NO1 (stereo not shown) [Compound 1-211] gave pest or weed control at 250 g/ha of 0

Lab note: CCOC(=O)C1(C)CC(c2cc(-c3ccc(C)nc3F)c(F)cc2Cl)=NO1 (stereo not shown) [Compound 1-463] gave pest or weed control at 250 g/ha of 0

Lab note: CCOC(=O)C1(C)CC(c2cc(-c3ncc(Cl)cc3Cl)c(F)cc2Cl)=NO1 (stereo not shown) [Compound 1-115] gave pest or weed control at 250 g/ha of 100

Lab note: CCOC(=O)C1(C)CC(c2cc(-c3cnc4ccc(C(F)(F)F)cc4n3)c(F)cc2Cl)=NO1 (stereo not shown) [Compound 1-763] gave pest or weed control at 250 g/ha of 0

###

pest or weed control at 250 g/ha values, listed per item
Tested on: LOLPE
Experiment: Post-emergence biological efficacy
Type: in vivo
Conditions: Lolium perenne, 312 h, evaluated after 13 days, read-out: damage to plant (100=total damage to plant; 0=no damage to plant)
Your answer is read as %, so omit the unit and give the number.

CCOC(=O)C1(C)CC(c2cc(-c3ncc(C(F)(F)F)cc3Br)c(F)cc2Cl)=NO1 (stereo not shown) [Compound 1-571] | 90
CCOC(=O)C1(C)CC(c2cc(-c3cnc(F)c(OC)c3)c(F)cc2Cl)=NO1 (stereo not shown) [Compound 1-415] | 20
CCOC(=O)C1(C)CC(c2cc(-c3cc(C)cc(F)n3)c(F)cc2Cl)=NO1 (stereo not shown) [Compound 1-367] | 0
CCOC(=O)C1(C)CC(c2cc(-c3ncc(F)cc3F)c(F)cc2Cl)=NO1 (stereo not shown) [Compound 1-551] | 100
CCOC(=O)C1(C)CC(c2cc(-c3cc(Cl)ncc3OC)c(F)cc2Cl)=NO1 (stereo not shown) [Compound 1-511] | 0

Lab note: CCOC(=O)C1(C)CC(c2cc(-c3cccnc3)c(F)cc2Cl)=NO1 (stereo not shown) [Compound 1-247] gave pest or weed control at 250 g/ha of 0

Lab note: CCOC(=O)C1(C)CC(c2cc(-c3cc(C)cnc3F)c(F)cc2Cl)=NO1 (stereo not shown) [Compound 1-223] gave pest or weed control at 250 g/ha of 20

Lab note: CCOC(=O)C1(C)CC(c2cc(-c3cnc(F)c(Cl)c3)c(F)cc2Cl)=NO1 (stereo not shown) [Compound 1-403] gave pest or weed control at 250 g/ha of 20

Lab note: CC1(C(=O)O)CC(c2cc(-c3ncc(C(F)(F)F)cc3Cl)c(F)cc2Cl)=NO1 (stereo not shown) [Compound 1-101] gave pest or weed control at 250 g/ha of 100

Lab note: CCOC(=O)C1(C)CC(c2cc(-c3ccnc(C(F)(F)F)c3)c(F)cc2Cl)=NO1 (stereo not shown) [Compound 1-499] gave pest or weed control at 250 g/ha of 0

Lab note: CCOC(=O)C1(C)CC(c2cc(-c3ncc(C(C)(F)F)cc3Cl)c(F)cc2Cl)=NO1 (stereo not shown) [Compound 1-595] gave pest or weed control at 250 g/ha of 100

Lab note: CCOC(=O)C1(C)CC(c2cc(-c3ncc(F)cc3Cl)c(F)cc2Cl)=NO1 (stereo not shown) [Compound 1-331] gave pest or weed control at 250 g/ha of 100

Lab note: CCOC(=O)C1(C)CC(c2cc(-c3nccnc3C)c(F)cc2Cl)=NO1 (stereo not shown) [Compound 1-775] gave pest or weed control at 250 g/ha of 0

###

Tested on: LOLPE
Test: Post-emergence biological efficacy
Type: in vivo
Conditions: Lolium perenne, 312 h, evaluated after 13 days, read-out: damage to plant (100=total damage to plant; 0=no damage to plant)
pest or weed control at 250 g/ha values, listed per item
Your answer is read as %, so omit the unit and give the number.

These recorded examples may help you get a feel for the data.
CCOC(=O)C1(C)CC(c2cc(-c3ncc([N+](=O)[O-])cc3Cl)c(F)cc2Cl)=NO1 (stereo not shown) | 50
CCOC(=O)C1(C)CC(c2cc(-c3ccc(C)cc3Cl)c(F)cc2Cl)=NO1 (stereo not shown) | 20
CCOC(=O)C1(C)CC(c2cc(-c3cnc4ccccc4c3)c(F)cc2Cl)=NO1 (stereo not shown) | 20

Then this compound:
Lab note: CCOC(=O)C1(C)CC(c2cc(-c3ccc(C(F)(F)F)cc3Cl)c(F)cc2Cl)=NO1 (stereo not shown) gave pest or weed control at 250 g/ha of 10

###

pest or weed control at 250 g/ha values, listed per item
Tested on: IPOHE
Assay: Post-emergence biological efficacy
Assay type: in vivo
Settings: Ipomoea hederacea, 312 h, evaluated after 13 days, read-out: damage to plant (100=total damage to plant; 0=no damage to plant)
Protocol: Seeds of weeds and/or crops were sown in standard soil in pots. […] The test plants were then grown under controlled conditions in the glasshouse (at 24/18° C., day/night; 15 hours light; 50% humidity)and watered twice daily. After 13 days the test was evaluated (100=total damage to plant; 0=no damage to plant).
Your answer is read as %, so omit the unit and give the number.

CCOC(=O)C1(C)CC(c2cc(-c3ccc(C(F)(F)F)nc3Cl)c(F)cc2Cl)=NO1 (centres unmarked) | 100
CCOC(=O)C1(C)CC(c2cc(-c3ncc(F)cc3F)c(F)cc2Cl)=NO1 (centres unmarked) | 100
CCOC(=O)C1(C)CC(c2cc(-c3cnccc3OC)c(F)cc2Cl)=NO1 (centres unmarked) | 30
CCOC(=O)C1(C)CC(c2cc(-c3ncc(C(F)F)cc3Cl)c(F)cc2Cl)=NO1 (centres unmarked) | 100
CCOC(=O)C1(C)CC(c2cc(-c3ccc(C)cc3Cl)c(F)cc2Cl)=NO1 (centres unmarked) | 90

Measured pest or weed control at 250 g/ha for this entry CCOC(=O)C1(C)CC(c2cc(-c3ncccc3Cl)c(F)cc2Cl)=NO1 (centres unmarked) on IPOHE: 100

Measured pest or weed control at 250 g/ha for this entry CCOC(=O)C1(C)CC(c2cc(-c3ccc(C)nc3F)c(F)cc2Cl)=NO1 (centres unmarked) on IPOHE: 100

Measured pest or weed control at 250 g/ha for this entry CCOC(=O)C1(C)CC(c2cc(-c3ccc(C)nc3)c(F)cc2Cl)=NO1 (centres unmarked) on IPOHE: 40
